This section presents molecules with their documented log10 Kd values.
target: GTPase KRas (Homo sapiens, UniProt P01116, G12V); assay: Binding affinity to KRAS G12V mutant (unknown origin) assessed as dissociation constant by HSQC NMR spectroscopy analysis
Sequence (P01116 whole entry G12V): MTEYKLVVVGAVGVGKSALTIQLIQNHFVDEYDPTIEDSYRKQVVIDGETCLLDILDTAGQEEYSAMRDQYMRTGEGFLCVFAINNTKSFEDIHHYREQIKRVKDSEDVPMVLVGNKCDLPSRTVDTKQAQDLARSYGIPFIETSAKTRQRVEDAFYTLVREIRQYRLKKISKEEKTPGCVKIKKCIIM
Units before log transform: mM; reported quantity: Kd; transform: log10.

Take a look at these entries with their results.
molecule	target-under-test	observed-value
CC1(C(=O)O)CCCc2sc(N)c(C#N)c21 (stereo not drawn)	GTPase KRas (Homo sapiens, UniProt P01116, G12V)	0.06
N#Cc1c(N)sc2c1C(C(=O)Nc1ccccc1)CCC2 (stereo not drawn)	GTPase KRas (Homo sapiens, UniProt P01116, G12V)	0.10
Cc1noc(C2(C)CCCc3sc(N)c(C#N)c32)n1 (stereo not drawn)	GTPase KRas (Homo sapiens, UniProt P01116, G12V)	-1.70
CC1(C(=O)Nc2ccccc2)CCCc2sc(N)c(C#N)c21 (stereo not drawn)	GTPase KRas (Homo sapiens, UniProt P01116, G12V)	0.07

Proceed to the following item.
What does the data say about its log10 Kd? Entry: `CC1(C)CCCc2sc(N)c(C#N)c21` -1.82

====

target: GTPase KRas (Homo sapiens, UniProt P01116, G12D); assay: Binding affinity to KRAS G12D mutant (unknown origin) assessed as dissociation constant by HSQC NMR spectroscopy analysis
Sequence (P01116 whole entry G12D): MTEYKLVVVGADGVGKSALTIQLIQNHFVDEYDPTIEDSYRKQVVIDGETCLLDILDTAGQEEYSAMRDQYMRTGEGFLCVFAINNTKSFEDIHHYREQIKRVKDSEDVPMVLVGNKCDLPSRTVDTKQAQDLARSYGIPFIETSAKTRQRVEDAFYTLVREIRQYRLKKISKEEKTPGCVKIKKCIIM
pKd: −log10 of the molar value.
experimental-readout: pKd

compound-smiles	target-under-test	observed-value
C[C@]1(c2nc(-c3ccc(N)cc3)no2)CCCc2sc(N)c(C#N)c21	GTPase KRas (Homo sapiens, UniProt P01116, G12D)	< 2.70

Proceed to the following item.
What does the data say about its pKd? Entry: `C[C@]1(c2nc(-c3cccc(N)c3)no2)CCCc2sc(N)c(C#N)c21` < 2.70

====

assay: Binding affinity to KRAS G12V/S39C-BIT mutant (unknown origin) assessed as dissociation constant by HSQC NMR spectroscopy analysis; set-up: species or system Homo sapiens
This section presents molecules with their documented log10 Kd values.
Units before log transform: µM; reported quantity: Kd; transform: log10.

molecule	log10 Kd
N#Cc1c(N)sc2ccccc12	2.47
Nc1nc2c(s1)CCCC2	2.85
N#Cc1c(N)sc2c1CCC2	2.29
N#Cc1c(N)sc2c1CCCC2	2.06
Nc1nc2c(C(F)(F)F)cccc2s1	3.09
CCc1c(C)sc(N)c1C#N	2.16
N#Cc1c(N)sc2c1CCCCC2	2.21

Proceed to the following item.
What does the data say about its log10 Kd? Entry: CC1CCCc2sc(N)c(C#N)c21 (centres undefined) 1.32

====

molecular target: GTPase KRas (Homo sapiens, UniProt P01116, G12V); test: Binding affinity to KRAS G12V mutant (unknown origin) assessed as dissociation constant by HSQC NMR spectroscopy analysis
pKd: −log10 of the molar value.
experimental-readout: pKd

Take a look at these entries with their results.
compound	pKd
CNC(=O)C1(C)CCCc2sc(N)c(C#N)c21 (stereo not drawn)	< 2.70
C[C@]1(c2nc(-c3cccc(N)c3)no2)CCCc2sc(N)c(C#N)c21	> 5.00

Request: pKd, test system GTPase KRas (Homo sapiens, UniProt P01116, G12V), entry `C[C@]1(c2nc(-c3ccc(N)cc3)no2)CCCc2sc(N)c(C#N)c21` > 5.00

====

experiment: Binding affinity to KRAS G12V/S39C-BIT mutant (unknown origin) assessed as dissociation constant by HSQC NMR spectroscopy analysis; parameters: species or system Homo sapiens
experimental-readout: Kd

compound-smiles	observed-value
N#Cc1ccsc1N	> 10 mM
CC1(C)CCCc2sc(N)c(C#N)c21	< 0.01 mM
COC(=O)c1c(N)sc2c1CCCC2	> 10 mM
CN(C)c1cccc2cccc(Cl)c12	> 10 mM
N#Cc1csc2c1CCCC2	> 2 mM

Proceed to the following item.
What does the data say about its Kd? Entry: `Oc1cccc(F)c1-c1ncccc1F` > 10 mM
